# protocol.description: Bidirectional Caco-2 permeability
# Type: in vitro ADME
# particulars: human, Caco-2

{"molecule": "CS(=O)(=O)N1CC(=O)N2[C@H](CO)[C@H](c3ccccc3)[C@@H]2C1 [28c]", "Papp B→A, ×10⁻⁶ cm/s": 20}
{"molecule": "CN1CCCCN2[C@H](CO)[C@H](c3ccccc3)[C@@H]2C1 [29c]", "Papp B→A, ×10⁻⁶ cm/s": 21}
{"molecule": "O=C1CNC[C@H]2[C@@H](c3ccccc3)[C@@H](COC(c3ccccc3)(c3ccccc3)c3ccccc3)N12 [28b]", "Papp B→A, ×10⁻⁶ cm/s": 17}
{"molecule": "CCCN1C2CN(Cc3ccc(F)cc3)CC1C2c1ccccc1 (centres unmarked) [27d]", "Papp B→A, ×10⁻⁶ cm/s": 7}
{"molecule": "CCCN1[C@H](CO)[C@H](c2ccccc2)C12CNC2 [30a]", "Papp B→A, ×10⁻⁶ cm/s": 12}

* * *

Entries and their solubility at 24 h
# protocol.description: physchem
# particulars: water, thermodynamic from solid
metric.name: solubility at 24 h (µM)

{"molecule": "CN1CCCCN2[C@H](CO)[C@H](c3ccccc3)[C@@H]2C1 [29c]", "unit.abbreviation": "µM", "operator.symbol": ">", "recorded.number": 500}
{"molecule": "CCCN1C2CN(S(C)(=O)=O)CC1C2c1ccccc1 (stereo not drawn) [27c]", "unit.abbreviation": "µM", "operator.symbol": "=", "recorded.number": 490}
{"molecule": "OC[C@@H]1[C@H](c2ccc(Br)cc2)[C@@H]2CNCCCCN12 [29a]", "unit.abbreviation": "µM", "operator.symbol": "=", "recorded.number": 388}
{"molecule": "CCCN1C2CNCC1C2c1ccccc1 (stereo not drawn) [27a]", "unit.abbreviation": "µM", "operator.symbol": ">", "recorded.number": 500}
{"molecule": "OC[C@@H]1[C@H](c2ccccc2)[C@@H]2CNCCCCN12 [29b]", "unit.abbreviation": "µM", "operator.symbol": "=", "recorded.number": 491}
{"molecule": "CCCN1C2CN(Cc3ccc(F)cc3)CC1C2c1ccccc1 (stereo not drawn) [27d]", "unit.abbreviation": "µM", "operator.symbol": "=", "recorded.number": 346}

* * *

Entries and their Papp A→B
# protocol.description: Bidirectional Caco-2 permeability
# Type: in vitro ADME
# particulars: human, Caco-2
metric.name: Papp A→B (×10⁻⁶ cm/s)

{"compound": "CN1CCCCN2[C@H](CO)[C@H](c3ccccc3)[C@@H]2C1 [29c]", "metric.name": "Papp A→B", "recorded.number": 14}
{"compound": "CN1CC(=O)N2[C@H](CO)[C@H](c3ccccc3)[C@@H]2C1 [28a]", "metric.name": "Papp A→B", "recorded.number": 43}
{"compound": "OC[C@@H]1[C@H](c2ccc(Br)cc2)[C@@H]2CNCCCCN12 [29a]", "metric.name": "Papp A→B", "recorded.number": 14}
{"compound": "CCCN1[C@@H]2COc3ccccc3[C@@H]2[C@@H]1CNS(C)(=O)=O [32b]", "metric.name": "Papp A→B", "recorded.number": 66}
{"compound": "CS(=O)(=O)N1CC(=O)N2[C@H](CO)[C@H](c3ccccc3)[C@@H]2C1 [28c]", "metric.name": "Papp A→B", "recorded.number": 17}
{"compound": "CCCN1C2CN(S(C)(=O)=O)CC1C2c1ccccc1 (centres unmarked) [27c]", "metric.name": "Papp A→B", "recorded.number": 66}
{"compound": "OC[C@@H]1[C@H](c2ccccc2)[C@@H]2CNCCCCN12 [29b]", "metric.name": "Papp A→B", "recorded.number": 2}
{"compound": "CCCN1[C@H](CO)[C@H](c2ccccc2)C12CN(C(C)=O)C2 [30c]", "metric.name": "Papp A→B", "recorded.number": 29}
{"compound": "CCCN1[C@@H]2COc3ccccc3[C@@H]2[C@@H]1CNC(=O)c1ccccc1 [32a]", "metric.name": "Papp A→B", "recorded.number": 59}
{"compound": "O=C1CNC[C@H]2[C@@H](c3ccccc3)[C@@H](COC(c3ccccc3)(c3ccccc3)c3ccccc3)N12 [28b]", "metric.name": "Papp A→B", "recorded.number": 12}
{"compound": "CCCN1[C@H](CO)[C@H](c2ccccc2)C12CN(C)C2 [30b]", "metric.name": "Papp A→B", "recorded.number": 33}
{"compound": "CCCN1[C@H](CO)[C@H](c2ccccc2)C12CNC2 [30a]", "metric.name": "Papp A→B", "recorded.number": 3}
{"compound": "CCCN1C2CNCC1C2c1ccccc1 (centres unmarked) [27a]", "metric.name": "Papp A→B", "recorded.number": 30}
{"compound": "CCCN1C2CN(Cc3ccc(F)cc3)CC1C2c1ccccc1 (centres unmarked) [27d]", "metric.name": "Papp A→B", "recorded.number": 14}

* * *

Entries and their plasma stability mouse
# protocol.description: Plasma stability, mouse
# particulars: % parent remaining at 5 h

{"compound": "CCCN1[C@H](CO)[C@H](c2ccccc2)C12CN(C)C2 [30b]", "plasma stability mouse": "106 % remaining"}
{"compound": "CCCN1C2CN(C(C)=O)CC1C2c1ccccc1 (stereo not shown) [27b]", "plasma stability mouse": "94 % remaining"}
{"compound": "OC[C@@H]1[C@H](c2ccccc2)[C@@H]2CNCCCCN12 [29b]", "plasma stability mouse": "94 % remaining"}
{"compound": "CN1CC(=O)N2[C@H](CO)[C@H](c3ccccc3)[C@@H]2C1 [28a]", "plasma stability mouse": "116 % remaining"}
{"compound": "CCCN1C2CN(S(C)(=O)=O)CC1C2c1ccccc1 (stereo not shown) [27c]", "plasma stability mouse": "102 % remaining"}
{"compound": "CCCN1C(CO)C2c3ccccc3N(C(C)=O)CC21 (racemic) [31b]", "plasma stability mouse": "98 % remaining"}
{"compound": "CCCN1[C@H](CO)[C@H](c2ccccc2)C12CNC2 [30a]", "plasma stability mouse": "108 % remaining"}
{"compound": "CCCN1[C@@H]2COc3ccccc3[C@@H]2[C@@H]1CNC(=O)c1ccccc1 [32a]", "plasma stability mouse": "102 % remaining"}
{"compound": "CCCN1[C@@H]2COc3ccccc3[C@@H]2[C@@H]1CNS(C)(=O)=O [32b]", "plasma stability mouse": "105 % remaining"}
{"compound": "CCCN1[C@H](CO)[C@H](c2ccccc2)[C@@H]1CN [26b]", "plasma stability mouse": "100 % remaining"}

* * *

# protocol.description: Hepatocyte stability, mouse
# particulars: % parent remaining at 2 hour
Lab note - cut at 90 % remaining for hepatocytes mouse: y if strictly below, n if not.

{"compound": "OC[C@@H]1[C@H](c2ccc(Br)cc2)[C@@H]2CNCCCCN12 [29a]", "assigned.class": "n"}
{"compound": "CCCN1[C@H](CO)[C@H](c2ccccc2)[C@@H]1CN [26b]", "assigned.class": "n"}
{"compound": "CCCN1C2CN(S(C)(=O)=O)CC1C2c1ccccc1 (stereo not drawn) [27c]", "assigned.class": "y"}
{"compound": "CCCN1C2CN(C(C)=O)CC1C2c1ccccc1 (stereo not drawn) [27b]", "assigned.class": "n"}
{"compound": "CCCN1C(CO)C2c3ccccc3N(C(C)=O)CC21 (racemic) [31b]", "assigned.class": "y"}
{"compound": "CCCN1[C@H](CO)[C@H](c2ccccc2)[C@@H]1C#N [26a]", "assigned.class": "y"}

* * *

# protocol.description: Microsomal stability, mouse
# particulars: % parent remaining at 1 hour

{"compound": "CS(=O)(=O)N1CC(=O)N2[C@H](CO)[C@H](c3ccccc3)[C@@H]2C1 [28c]", "microsomal stability mouse, % remaining": 100}
{"compound": "CCCN1[C@@H]2COc3ccccc3[C@@H]2[C@@H]1CNC(=O)c1ccccc1 [32a]", "microsomal stability mouse, % remaining": 0}
{"compound": "CCCN1[C@H](CO)[C@H](c2ccccc2)[C@@H]1C#N [26a]", "microsomal stability mouse, % remaining": 62}
{"compound": "CCCN1[C@@H]2COc3ccccc3[C@@H]2[C@@H]1CNS(C)(=O)=O [32b]", "microsomal stability mouse, % remaining": 63}
{"compound": "CN1CCCCN2[C@H](CO)[C@H](c3ccccc3)[C@@H]2C1 [29c]", "microsomal stability mouse, % remaining": 97}
{"compound": "CCCN1[C@H](CO)[C@H](c2ccccc2)C12CN(C(C)=O)C2 [30c]", "microsomal stability mouse, % remaining": 89}
{"compound": "CCCN1C2CN(Cc3ccc(F)cc3)CC1C2c1ccccc1 (stereo not shown) [27d]", "microsomal stability mouse, % remaining": 42}
{"compound": "CCCN1C(CO)C2c3ccccc3NCC21 (racemic) [31a]", "microsomal stability mouse, % remaining": 94}
{"compound": "CCCN1C2CN(C(C)=O)CC1C2c1ccccc1 (stereo not shown) [27b]", "microsomal stability mouse, % remaining": 93}
{"compound": "CCCN1C(CO)C2c3ccccc3N(S(C)(=O)=O)CC21 (racemic) [31c]", "microsomal stability mouse, % remaining": 34}
